- Test system: 184B5
- assay notes: MTT toxicity assay in non-malignant mammary gland cells 184B5
- Assay type: cell-based
- condition set: human, 72 h
List of TGI 184B5 values.
Please give a number only; it is taken to be in µM.

Please review the following examples before continuing.
1. O=C(O)C[Se]C(=O)Cc1ccccc1: 9.64
2. COc1cc(OC)cc(C(=O)[Se]CC(=O)O)c1: 8.21
3. O=C(O)C[Se]C(=O)c1cccnc1Cl: 1.89

Turning to the following compound.
Form field TGI 184B5, entry N#Cc1ccc(C(=O)[Se]CC(=O)O)cc1 : 20.14

====

- Test system: 184B5
- assay notes: MTT toxicity assay in non-malignant mammary gland cells 184B5
- Assay type: cell-based
- condition set: 72 h, non-malignant cells, dose that kills 50% of cells
Hi! Could you tag entries with LD50 184B5 below 70 µM as true (1), and those at or above as false (0)? Much appreciated.

1. O=C(O)C[Se]C(=O)c1ccccc1 [Compound 1, (Benzoylselenyl)acetic acid]: false (0)
2. O=C(O)C[Se]C(=O)Cc1ccccc1 [Compound 11, Phenylacetoylselenylacetic acid]: false (0)

(Q) Quick check: LD50 184B5 of O=C(O)C[Se]C(=O)c1cccnc1Cl [Compound 21] under 70 µM?
(A) true (1)

(Q) Quick check: LD50 184B5 of COc1cc(OC)cc(C(=O)[Se]CC(=O)O)c1 [Compound 14] under 70 µM?
(A) true (1)

(Q) Quick check: LD50 184B5 of N#Cc1ccc(C(=O)[Se]CC(=O)O)cc1 [Compound 2, (4-cyanobenzoylselenyl)acetic acid] under 70 µM?
(A) false (0)

====

List of GI50 values.
- Tested on: HT-29
- assay notes: MTT cytotoxicity assay (NCI) in HT-29
- Format: cell-based, human
- condition set: Homo sapiens, HT-29; 72 h, dose that inhibits 50% of cell growth; read-out: GI50 HT-29
Please give a number only; it is taken to be in µM.

1) O=C(O)C[Se]C(=O)c1cccnc1Cl: 7.53
2) O=C(O)C[Se]C(=O)Cc1ccccc1: 16.2
3) N#Cc1ccc(C(=O)[Se]CC(=O)O)cc1: 8.95

Turning to the following compound.
Form field GI50, entry COc1cc(OC)cc(C(=O)[Se]CC(=O)O)c1 : 5.99

====

- Tested on: HT-29
- assay notes: MTT cytotoxicity assay (NCI) in HT-29
- Type: cell-based, human
- condition set: 72 h, dose that completely inhibits cell growth
Label scheme for TGI HT-29: lower than 60 µM is FALSE, 60 µM and above is TRUE.

Examples with answers:
1) O=C(O)C[Se]C(=O)c1ccccc1: FALSE
2) COc1cc(OC)cc(C(=O)[Se]CC(=O)O)c1: FALSE
3) N#Cc1ccc(C(=O)[Se]CC(=O)O)cc1: FALSE

(Q) Please indicate if the recorded TGI HT-29 for O=C(O)C[Se]C(=O)Cc1ccccc1 meets or exceeds 60 µM.
(A) TRUE

====

- Tested on: MCF-7
- assay notes: MTT cytotoxicity assay (NCI) in MCF-7
- Format: cell-based, human
- condition set: 72 h, dose that kills 50% of cells
measured endpoint: LD50 MCF-7

Please review the following examples before continuing.
1. N#Cc1ccc(C(=O)[Se]CC(=O)O)cc1: 23.12 µM
2. O=C(O)C[Se]C(=O)c1cccnc1Cl: 89.21 µM
3. O=C(O)C[Se]C(=O)c1ccccc1: 58.01 µM
4. COc1cccc2c1C(=O)c1c(O)c3c(c(O)c1C2=O)C[C@@](O)(C(=O)CO)C[C@@H]3O[C@H]1C[C@H](N)[C@H](O)[C@H](C)O1 [Doxorub., doxorubicin, reference compound]: >100 µM

Form field LD50 MCF-7, entry COc1cc(OC)cc(C(=O)[Se]CC(=O)O)c1 : 52.65 µM

Form field LD50 MCF-7, entry O=C(O)C[Se]C(=O)Cc1ccccc1 : 53.49 µM

====

- Test system: CCRF-CEM
- assay notes: MTT cytotoxicity assay (NCI) in CCRF-CEM
- Type: cell-based, human
- condition set: Homo sapiens, CCRF-CEM; 72 h, dose that inhibits 50% of cell growth; read-out: GI50 CCRF-CEM
- Method: In order to investigate the effect of the active compounds in more detail, we examined the activity on proliferation in other cancer cell lines. […] The cytotoxic effects of each substance were tested at five different doses between 0.01 and 100 μM. […] Cytotoxicity was then determined by the MTT method. […]
measured endpoint: GI50

1) N#Cc1ccc(C(=O)[Se]CC(=O)O)cc1 [Compound 2, (4-cyanobenzoylselenyl)acetic acid]: > 100 µM
2) COc1cc(OC)cc(C(=O)[Se]CC(=O)O)c1 [Compound 14]: > 100 µM
3) COc1cccc2c1C(=O)c1c(O)c3c(c(O)c1C2=O)C[C@@](O)(C(=O)CO)C[C@@H]3O[C@H]1C[C@H](N)[C@H](O)[C@H](C)O1 [Doxorub., doxorubicin, reference compound]: 0.033 µM
4) O=C(O)C[Se]C(=O)c1cccnc1Cl [Compound 21]: > 100 µM

Turning to the following molecule.
The reported GI50 value, CCRF-CEM, for O=C(O)C[Se]C(=O)Cc1ccccc1 [Compound 11, Phenylacetoylselenylacetic acid] reads > 100 µM

====

- assay notes: MTT toxicity assay in non-malignant mammary gland cells 184B5
- Assay type: cell-based
- condition set: human; 72 h, non-malignant cells, dose that inhibits 50% of cell growth; read-out: GI50 184B5
measured endpoint: GI50 at 72 h (nM)
Please give a number only; it is taken to be in nM.

Form field GI50 at 72 h, entry O=C(O)C[Se]C(=O)c1ccccc1 : 1970

====

- Tested on: HTB-54
- assay notes: MTT cytotoxicity assay (NCI) in HTB-54
- Format: cell-based, human
- condition set: Homo sapiens, HTB-54; 72 h, dose that inhibits 50% of cell growth; read-out: GI50 HTB-54
measured endpoint: GI50 (µM)
Please give a number only; it is taken to be in µM.

Please review the following examples before continuing.
1. N#Cc1ccc(C(=O)[Se]CC(=O)O)cc1 [Compound 2, (4-cyanobenzoylselenyl)acetic acid]: 1.9
2. COc1cc(OC)cc(C(=O)[Se]CC(=O)O)c1 [Compound 14]: 16.8
3. O=C(O)C[Se]C(=O)Cc1ccccc1 [Compound 11, Phenylacetoylselenylacetic acid]: 11.1

Turning to the following compound.
Form field GI50, entry O=C(O)C[Se]C(=O)c1cccnc1Cl [Compound 21] : 11.8

====

- System: HTB-54
- assay notes: MTT cytotoxicity assay (NCI) in HTB-54
- Assay type: cell-based, human
- condition set: 72 h, dose that completely inhibits cell growth
measured endpoint: TGI HTB-54 (µM)
Please give a number only; it is taken to be in µM.

Please review the following examples before continuing.
1) O=C(O)C[Se]C(=O)c1ccccc1: 42.47
2) N#Cc1ccc(C(=O)[Se]CC(=O)O)cc1: 9.91

Turning to the following compound.
Form field TGI HTB-54, entry COc1cccc2c1C(=O)c1c(O)c3c(c(O)c1C2=O)C[C@@](O)(C(=O)CO)C[C@@H]3O[C@H]1C[C@H](N)[C@H](O)[C@H](C)O1 [Doxorub., doxorubicin, reference compound] : 1.25

====

- assay notes: MTT toxicity assay in non-malignant mammary gland cells 184B5
- Assay type: cell-based
- condition set: human
List of GI50 at 72 h values.

1. O=C(O)C[Se]C(=O)Cc1ccccc1: 1050 nM
2. N#Cc1ccc(C(=O)[Se]CC(=O)O)cc1: 2290 nM
3. COc1cc(OC)cc(C(=O)[Se]CC(=O)O)c1: 0.9 nM

Form field GI50 at 72 h, entry O=C(O)C[Se]C(=O)c1cccnc1Cl : 50 nM

====

- System: HTB-54
- assay notes: MTT cytotoxicity assay (NCI) in HTB-54
- Format: cell-based, human
- condition set: 72 h, dose that completely inhibits cell growth
measured endpoint: TGI HTB-54

Please review the following examples before continuing.
1. O=C(O)C[Se]C(=O)Cc1ccccc1: >100 µM
2. COc1cc(OC)cc(C(=O)[Se]CC(=O)O)c1: >100 µM

Turning to the following compound.
Form field TGI HTB-54, entry O=C(O)C[Se]C(=O)c1cccnc1Cl : >100 µM
